# study target: TRPC5 channel (Homo sapiens (Human), UniProt Q9UL62)
# Sequence (Q9UL62 whole entry): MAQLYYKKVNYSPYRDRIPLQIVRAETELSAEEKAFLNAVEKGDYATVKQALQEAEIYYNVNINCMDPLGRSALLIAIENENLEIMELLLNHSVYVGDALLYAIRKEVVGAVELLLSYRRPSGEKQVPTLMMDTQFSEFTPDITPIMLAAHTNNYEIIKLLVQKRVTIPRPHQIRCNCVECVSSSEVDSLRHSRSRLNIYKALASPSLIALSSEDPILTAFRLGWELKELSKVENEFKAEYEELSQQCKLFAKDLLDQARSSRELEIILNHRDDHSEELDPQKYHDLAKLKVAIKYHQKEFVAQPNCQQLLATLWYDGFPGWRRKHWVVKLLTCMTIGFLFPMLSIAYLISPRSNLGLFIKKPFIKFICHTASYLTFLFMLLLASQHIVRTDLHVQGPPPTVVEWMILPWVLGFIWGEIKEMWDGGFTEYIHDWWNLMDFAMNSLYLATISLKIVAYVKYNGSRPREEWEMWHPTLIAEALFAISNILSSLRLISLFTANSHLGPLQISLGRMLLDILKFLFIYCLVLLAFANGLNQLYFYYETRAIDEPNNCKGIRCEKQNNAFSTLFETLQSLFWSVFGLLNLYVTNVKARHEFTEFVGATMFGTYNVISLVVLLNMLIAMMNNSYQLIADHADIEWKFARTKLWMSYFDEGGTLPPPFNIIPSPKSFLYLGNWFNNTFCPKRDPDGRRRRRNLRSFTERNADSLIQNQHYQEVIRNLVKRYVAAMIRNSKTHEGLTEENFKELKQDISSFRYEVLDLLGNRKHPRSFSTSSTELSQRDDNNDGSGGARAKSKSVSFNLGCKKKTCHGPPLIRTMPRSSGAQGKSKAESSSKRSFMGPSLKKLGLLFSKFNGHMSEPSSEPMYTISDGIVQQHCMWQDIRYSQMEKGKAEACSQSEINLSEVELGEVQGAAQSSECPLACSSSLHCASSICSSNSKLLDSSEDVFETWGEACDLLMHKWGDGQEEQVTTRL
# protocol details: High throughput screening assay: intracellular Ca2+ rise, Fluo4 cell-based fluorescence
# condition details: HEK293/TREx cells inducibly expressing TRPC5, high-Ca2+ Ringer, 14 mM Ca2+ final, triplicate, 0.027-20 μM
pIC50: −log10 of the molar value.
measurement name: pIC50

[
  {
    "compound": "Cc1c(-c2cccc(Cl)c2)sc2c1c(=O)n(CCCO)c(=O)n2C",
    "pIC50": 6.65
  }
]

(1) Cn1c(=O)n(CCCO)c(=O)c2c(C(O)c3ccc(Cl)cc3)c(-c3cccc(Cl)c3)sc21 (stereo not drawn)
(2) Cc1c(-c2cncc(Cl)c2)sc2c1c(=O)n(CCCO)c(=O)n2C
(3) Cc1c(-c2ccc(Cl)cc2)sc2c1c(=O)n(CCCO)c(=O)n2C
(4) CC(C)CCc1c(-c2cccc(OC(F)(F)F)c2)sc2c1c(=O)n(CCCO)c(=O)n2C
(5) Cc1c(-c2cccc(F)c2)sc2c1c(=O)n(CCCO)c(=O)n2C
Arrange items by their pIC50 values in increasing order. Thanks in advance for listing the labels in the requested order.
2, 4, 3, 1, 5
(2: 5.77, 4: 6.47, 3: 6.77, 1: 7.26, 5: 7.57)

----------
# study target: TRPC5 channel (Homo sapiens (Human), UniProt Q9UL62)
# protocol details: High throughput screening assay: intracellular Ca2+ rise, Fluo4 cell-based fluorescence
# condition details: HEK293/TREx cells inducibly expressing TRPC5, high-Ca2+ Ringer, 14 mM Ca2+ final, triplicate, 0.027-20 μM
measurement name: IC50 (nM)

(I) Cn1c(=O)n(CCCO)c(=O)c2c(Cc3ccc(Cl)cc3)c(Oc3cccc(Cl)c3)sc21 [Compound 2]
(II) Cn1c(=O)n(CCCO)c(=O)c2c(Cc3ccc(Cl)cc3)c(-c3ccc(Cl)cc3)sc21 [Compound 24]
(III) CC(C)CC(O)c1c(-c2cccc(OC(F)(F)F)c2)sc2c1c(=O)n(CCCO)c(=O)n2C (stereo not drawn) [Compound 22]
(IV) Cn1c(=O)n(CCCO)c(=O)c2c(Cc3ccc(Cl)cc3)c(Oc3cccc(OC(F)(F)F)c3)sc21 [Compound 1]
(V) Cc1c(-c2ccc3ccccc3c2)sc2c1c(=O)n(CCCO)c(=O)n2C [Compound 7]
Arrange by IC50, high to low. Lab note: final answer is the ordered label list.
IV, III, II, I, V

(A) Cn1c(=O)n(CCCO)c(=O)c2c(Cc3ccc(Cl)cc3)c(-c3cccc(OC(F)(F)F)c3)sc21 [Compound 26]
(B) O=c1c2c(Cc3ccc(Cl)cc3)c(-c3cccc(Cl)c3)oc2n(CCCO)c(=O)n1CCCO [Compound 28]
(C) Cn1c(=O)n(CCCO)c(=O)c2c(Cc3ccc(Cl)cc3)c(-c3cccc(Cl)c3)sc21 [Compound 23]
(D) Cc1c(-c2ccc(F)c(F)c2)sc2c1c(=O)n(CCCO)c(=O)n2C [Compound 15]
// ascending sort on recorded IC50 The labels, placed in the requested order, form the answer.
A, C, D, B
(A: 1.91 nM, C: 27 nM, D: 112 nM, B: 4330 nM)

(P) Cc1c(-c2ccccc2Cl)sc2c1c(=O)n(CCCO)c(=O)n2C [Compound 16]
(Q) Cn1c(=O)n(CCCO)c(=O)c2c(Cc3ccc(Cl)cc3)c(-c3cccc(Cl)c3)oc21 [Compound 27]
(R) Cc1c(-c2cccc(OC(F)(F)F)c2)sc2c1c(=O)n(CCCO)c(=O)n2C [Compound 14]
Rank descending by IC50. Give the order by naming the labels one after another as requested.
Q, R, P
